All values here come from patent US20220162163A1.

biological target: Androgen receptor (AR) (Homo sapiens, UniProt P10275); construct: endogenous in cells; host or cells: VCaP; experiment: Cellular assay of androgen receptor (AR) degradation (VCaP cells, ELISA); type: cell-based; conditions: @ 1 μM
Sequence (P10275 whole entry): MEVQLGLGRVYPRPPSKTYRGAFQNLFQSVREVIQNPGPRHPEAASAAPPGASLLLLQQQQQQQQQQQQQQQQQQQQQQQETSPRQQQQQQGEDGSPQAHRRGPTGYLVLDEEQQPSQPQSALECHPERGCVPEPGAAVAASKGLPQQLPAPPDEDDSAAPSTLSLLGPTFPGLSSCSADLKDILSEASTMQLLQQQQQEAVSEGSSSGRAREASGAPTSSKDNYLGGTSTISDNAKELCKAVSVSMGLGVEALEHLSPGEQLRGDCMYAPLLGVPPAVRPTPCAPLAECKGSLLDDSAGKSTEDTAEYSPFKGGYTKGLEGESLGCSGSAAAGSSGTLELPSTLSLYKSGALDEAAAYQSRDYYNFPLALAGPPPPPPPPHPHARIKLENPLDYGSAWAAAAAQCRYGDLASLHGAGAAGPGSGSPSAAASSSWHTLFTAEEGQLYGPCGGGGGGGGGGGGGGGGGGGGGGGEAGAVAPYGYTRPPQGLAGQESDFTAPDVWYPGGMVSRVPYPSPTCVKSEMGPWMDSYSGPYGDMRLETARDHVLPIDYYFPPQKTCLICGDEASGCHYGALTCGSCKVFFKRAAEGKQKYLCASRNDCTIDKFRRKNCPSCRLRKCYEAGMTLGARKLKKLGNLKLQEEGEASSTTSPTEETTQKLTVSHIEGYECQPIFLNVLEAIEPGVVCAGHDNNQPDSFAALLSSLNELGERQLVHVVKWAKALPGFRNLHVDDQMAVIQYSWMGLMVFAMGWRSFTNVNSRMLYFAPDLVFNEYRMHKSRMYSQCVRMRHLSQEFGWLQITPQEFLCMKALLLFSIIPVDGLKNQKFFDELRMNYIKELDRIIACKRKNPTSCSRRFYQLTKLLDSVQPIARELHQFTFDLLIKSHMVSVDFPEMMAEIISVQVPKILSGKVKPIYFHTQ
The entries below are paired with their reported Androgen receptor (AR) degradation in VCaP cells.
Expressed in %, but write only the number.

Look over these answered cases.
# COMPOUND, TARGET_OR_SYSTEM, EXPERIMENTAL_VALUE
rows = [
    ("CN[C@@H](C)C(=O)N[C@H](C(=O)N1CCC[C@H]1C(=O)N[C@H]1c2ccccc2C[C@H]1OCCOCCOc1ccc(N2C(=S)N(c3ccc(C#N)c(C(F)(F)F)c3)C(=O)C2(C)C)cc1)C(C)(C)C [drawing 254]", "Androgen receptor (AR) (Homo sapiens, UniProt P10275)", 29),
    ("CN[C@@H](C)C(=O)N[C@H](C(=O)N1CCC[C@H]1C(=O)N[C@H]1c2ccccc2C[C@H]1OCCOCCOCCOc1ccc(N2C(=S)N(c3ccc(C#N)c(C(F)(F)F)c3)C(=O)C2(C)C)cc1)C(C)(C)C [drawing 255]", "Androgen receptor (AR) (Homo sapiens, UniProt P10275)", 9),
    ("CN[C@@H](C)C(=O)N[C@H](C(=O)N1CCC[C@H]1C(=O)N[C@H]1c2ccccc2C[C@H]1OCCOCCOCCOc1ccc(C(=O)N[C@H]2C(C)(C)[C@H](Oc3ccc(C#N)c(Cl)c3)C2(C)C)cc1)C(C)(C)C", "Androgen receptor (AR) (Homo sapiens, UniProt P10275)", 18),
    ("CN[C@@H](C)C(=O)N[C@H](C(=O)N1CCC[C@H]1C(=O)N[C@H]1c2ccccc2C[C@H]1OCCOCCOCCOCCOc1ccc(N2C(=S)N(c3ccc(C#N)c(C(F)(F)F)c3)C(=O)C2(C)C)cc1)C(C)(C)C [drawing 256]", "Androgen receptor (AR) (Homo sapiens, UniProt P10275)", 9),
    ("CN[C@@H](C)C(=O)N[C@H](C(=O)N1CCC[C@H]1C(=O)N[C@H]1c2ccccc2C[C@H]1OCCOCCOCCOCCOc1ccc(C(=O)N[C@H]2C(C)(C)[C@H](Oc3ccc(C#N)c(Cl)c3)C2(C)C)cc1)C(C)(C)C", "Androgen receptor (AR) (Homo sapiens, UniProt P10275)", 33),
]

Please look at the following compound next.
Return value of Androgen receptor (AR) degradation in VCaP cells for input CN[C@@H](C)C(=O)N[C@H](C(=O)N1CCC[C@H]1C(=O)N[C@H]1c2ccccc2C[C@H]1OCCOCCOCCOCCOCCOc1ccc(C(=O)N[C@H]2C(C)(C)[C@H](Oc3ccc(C#N)c(Cl)c3)C2(C)C)cc1)C(C)(C)C , no commentary.
38
